meta.source: paper PMC3025325

Tested on: bloodstream forms of Trypanosoma brucei
Experiment: Resazurin cell viability assay, EC50 determinations against T. brucei
Assay type: cell-based, T. b. brucei (strain 427)
Details: Trypanosoma brucei, 72 h, read-out: EC50 vs. T. brucei
Listed here are molecules together with their documented EC50.
// note: answer is a bare numeric in nM

Recorded EC50, per entry:
molecule | u | EC50
CC(=O)[C@]1(O)Cc2c(O)c3c(c(O)c2[C@@H](O[C@H]2C[C@H](N)[C@H](O)[C@H](C)O2)C1)C(=O)c1ccccc1C3=O | nM | 20
C[n+]1cc2c3c(ccc2c2ccc4cc5c(cc4c21)OCO5)OCO3 [Sanguinarine chloride] | nM | 240

Moving on to the next molecule.
State the recorded EC50 for this entry: O=c1[nH]c2ccccc2n1C1CCN(CCCC(c2ccc(F)cc2)c2ccc(F)cc2)CC1 [Pimozide]
340
